Biological target: T1, PACAP-R3 (human, UniProt P41587 24-438)
T1 sequence (looked up): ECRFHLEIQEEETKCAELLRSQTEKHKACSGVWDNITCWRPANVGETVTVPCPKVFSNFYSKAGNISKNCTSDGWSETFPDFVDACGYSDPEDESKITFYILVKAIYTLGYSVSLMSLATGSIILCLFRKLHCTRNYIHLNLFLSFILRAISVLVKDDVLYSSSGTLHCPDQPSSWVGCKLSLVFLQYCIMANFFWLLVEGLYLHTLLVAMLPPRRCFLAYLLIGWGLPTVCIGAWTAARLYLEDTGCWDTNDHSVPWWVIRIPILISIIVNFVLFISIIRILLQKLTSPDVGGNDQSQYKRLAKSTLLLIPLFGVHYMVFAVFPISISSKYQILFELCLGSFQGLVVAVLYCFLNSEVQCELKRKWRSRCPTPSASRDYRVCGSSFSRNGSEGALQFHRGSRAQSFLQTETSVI
Assay: cell-based or functional assay
This section presents binders with their documented R3 EC50 values.

binder	R3 EC50
HSDAVFTDNYTRLRKQMAAKKYLNSIKNVR [R3P150]	0.8 nM
HSDAVFTDNYTRLRKQMAAKKYLNSIKKKR [R3P53]	0.2 nM
HSDAVFTDNYTRLRKQMAAKKYLNSIDNKR [R3P118]	0.5 nM
HSDAVFTDNYTRLRKQMAAKKYLNSIPNKR [R3P126]	1 nM
HSDAVFTDNYTRLRKQLAVKKYLNDIKKGGT [R3P21]	0.3 nM
HSDAVFTDNYTRLRKQMAEKKYLNSIKNKR [R3P99]	1 nM
HSDAVFTDNYTRLRKQMAAKKYLNSIKNKE [R3P156]	1 nM
HSDAVFTDNYTRLRKQMAAKKYLNSIKK [R3P51]	0.26 nM
HSDAVFTDNYTRLRKQMAAKKYLNSIKNKR [R3P65]	0.6 nM
HSDAVFTDNYTRLRKQMAAKKYLNSIKNKG [R3P158]	0.07 nM
HSDAVFTDNYTRLRKQMAVKKYLNSIKKKR [R3P57]	0.23 nM
HSDAVFTDNYTRLRKQVAAKKYLNSIKK [R3P62]	1.8 nM
HSDAVFTDNYTRLRKQLAAKKYLNDIKKNQ [R3P35]	2.6 nM
HSDAVFTDNYTRLRKQMAAKKYLNSIKNKA [R3P153]	0.2 nM
